- systemName: glycine receptor
- protocolDetails: Receptor-binding studies in vitro, rat cortex synaptosomes
- reportedConditions: read-out: Binding to glycine receptors in the brain, Kd
Kindly supply the reported Kd values for the records listed here.
Form entry: value (nM) — number only.

Exercise: Form entry - test system: glycine receptor; read-out: Kd; molecule: NC(C(=O)NCC(=O)O)c1cccs1 (centres unmarked)
Key: 1800

Exercise: Form entry - test system: glycine receptor; read-out: Kd; molecule: Cl.NCC(=O)NC(C(=O)O)c1cccs1 (centres unmarked) [Example 9, hydrochloride]
Key: 1800

---

- System: Ischaemia-induced amnesia in the Mongolian gerbil
- protocolDetails: Ischaemia-induced amnesia, passive-avoidance learning after brief bilateral cerebral ischaemia
- Assay type: in vivo
- reportedConditions: Meriones unguiculatus, ip, i.p. immediately after the end of ischaemia (3-5 min), read-out: Dose which elicits a half-maximum (about 50%) antagonism of the learning impairment
Counter-ions that a name gives are not always drawn.
valueType: log10(ED50) (log10 of the value in mg/kg)
The base-10 logarithm of ED50, taken with ED50 in mg/kg, is what appears here.

Exercise: Form entry - test system: Ischaemia-induced amnesia in the Mongolian gerbil; read-out: log10(ED50); compound: NC(C(=O)NCC(=O)O)c1cccs1 (stereo not drawn) [Example 11, N-(2-Thienylaminoacetyl)glycine]
Key: 0.00

Exercise: Form entry - test system: Ischaemia-induced amnesia in the Mongolian gerbil; read-out: log10(ED50); compound: COc1ccc(C(=O)N2CCCC2=O)cc1 [Aniracetam, reference compound]
Key: 1.48

Exercise: Form entry - test system: Ischaemia-induced amnesia in the Mongolian gerbil; read-out: log10(ED50); compound: NC(=O)C(NCC(=O)O)c1cccs1 (stereo not drawn) [Example 8, hydrochloride]
Key: -1.52

Exercise: Form entry - test system: Ischaemia-induced amnesia in the Mongolian gerbil; read-out: log10(ED50); compound: NC(=O)CN1CC(O)CC1=O (stereo not drawn) [Oxiracetam, reference compound]
Key: 2.00

Exercise: Form entry - test system: Ischaemia-induced amnesia in the Mongolian gerbil; read-out: log10(ED50); compound: Cl.NCC(=O)NC(C(=O)O)c1cccs1 (stereo not drawn) [Example 9]
Key: -1.00

Exercise: Form entry - test system: Ischaemia-induced amnesia in the Mongolian gerbil; read-out: log10(ED50); compound: NC(=O)CNC(C(=O)O)c1cccs1 (stereo not drawn) [Example 5]
Key: 0.00
